target: T1, human serum albumin (HSA), full length (human, UniProt P02768 25-609); assay: direct binding ELISA, coated HSA, anti-His-HRP; parameters: unit not given here
T1 construct: mature; Immobilized on CM5 chip (SPR) or coated on plates (ELISA)
T1 sequence (P02768 25-609): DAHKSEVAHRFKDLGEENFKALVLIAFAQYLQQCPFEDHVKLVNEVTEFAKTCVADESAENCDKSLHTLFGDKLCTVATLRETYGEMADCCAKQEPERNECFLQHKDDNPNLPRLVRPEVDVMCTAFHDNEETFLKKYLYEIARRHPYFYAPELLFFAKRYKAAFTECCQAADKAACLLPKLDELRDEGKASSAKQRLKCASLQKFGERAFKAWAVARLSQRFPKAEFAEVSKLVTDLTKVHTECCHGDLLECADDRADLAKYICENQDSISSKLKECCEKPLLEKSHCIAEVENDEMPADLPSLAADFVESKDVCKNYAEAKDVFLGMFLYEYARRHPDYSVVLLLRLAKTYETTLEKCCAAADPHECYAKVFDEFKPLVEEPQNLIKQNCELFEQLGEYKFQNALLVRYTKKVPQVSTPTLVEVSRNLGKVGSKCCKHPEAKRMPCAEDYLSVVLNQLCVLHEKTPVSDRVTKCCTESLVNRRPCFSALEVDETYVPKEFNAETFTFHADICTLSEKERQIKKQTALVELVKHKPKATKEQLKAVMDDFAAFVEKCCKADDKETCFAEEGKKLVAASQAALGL
Please go through the items and note down their HSA DB ELISA (OD450) Ymin obs.
Numbers only.

Consider the worked cases shown below.
ADX_6727_C03 (Y35S) (designed binder, Full His6-tagged entry) MGVSDVPRDLEVVAATPTSLLISWDAPAVTVRYYRITYGREVQKSSDLGPLYIYQEFTVPGSKSTATISGLKPGVDYTITVYAVTGSGESPASSKPISINYRTEIDKPSQHHHHHH : 31
ADX_6727_C01 (K85A) (designed binder, Full His6-tagged entry) MGVSDVPRDLEVVAATPTSLLISWDAPAVTVRYYRITYGREVQKYSDLGPLYIYQEFTVPGSKSTATISGLKPGVDYTITVYAVTGSGESPASSAPISINYRTEIDKPSQHHHHHH : 88
ADX_6727_F03 (I43Y as printed in Table 4; I43A in Table 7) (designed binder, Full His6-tagged entry) MGVSDVPRDLEVVAATPTSLLISWDAPAVTVRYYRITYGREVQKYSDLGPLYAYQEFTVPGSKSTATISGLKPGVDYTITVYAVTGSGESPASSKPISINYRTEIDKPSQHHHHHH : 9

Please turn your attention to the following entry.
Given item ADX_6727_B11 (Q33D/K85S) (designed binder, Full His6-tagged entry) MGVSDVPRDLEVVAATPTSLLISWDAPAVTVRYYRITYGREVDKYSDLGPLYIYQEFTVPGSKSTATISGLKPGVDYTITVYAVTGSGESPASSSPISINYRTEIDKPSQHHHHHH , the value recorded as its HSA DB ELISA (OD450) Ymin obs is 1
